The reported numbers originate from patent US12590094B2.

EC50 values for the compounds below.
# Tested on: PK1 neuroblastoma cells treated with TPrP
# Assay: cells
# Assay type: cell-based
# Condition summary: Neuroblastoma cell, read-out: Viability EC50
Field format: number, assumed µM, no unit text.

Here's what some known entries look like.
Q: Identify EC50 associated with the compound `O=C(NCCCn1ccnc1)c1cnn2c(C(F)(F)F)cc(-c3ccc(-c4ccco4)cc3)nc12`
A: 0.0029

Q: Identify EC50 associated with the compound `COc1ccc(-c2nnc3c4ccccc4c(C)nn23)cc1S(=O)(=O)N1CCOCC1`
A: 0.029

Q: Identify EC50 associated with the compound `COc1ccc(-c2cc(=O)c3c(O)c(OC)c(OC)c(OC)c3o2)cc1OC`
A: 0.081

Next:
Q: Identify EC50 associated with the compound `COc1cc(OC)c2c(=O)cc(-c3ccccc3)oc2c1`
A: 1.7
